Data credit: the supplement of paper PMC13380429

- Test system: Calu-3
- method: cell viability relative to DMSO; higher = less toxic
- measurementParameters: 72 h; 1000 nM
measurementName: cell viability (%)
Numbers only here, please. The scale is %.

Worked cases, answers included:
> print(dat)
                                   molecule  measurement
1  CCOC(=O)[C@H](CCc1ccccc1)N[C@@H](C)C(=O)N1CCC[C@H]1C(=O)O          101
2  CCC1(c2ccc(N)cc2)CCC(=O)NC1=O (stereo not drawn) [aminoglutethimide]         93.2
3  CCCC(C)C1(CC)C(=O)NC(=O)NC1=O (stereo not drawn)          107
4  O=C1N(c2ccccc2)c2ccccc2C1(Cc1ccncc1)Cc1ccncc1          103
5                      O=C(CCCl)NCCc1ccccc1           96
6  CN1c2c([nH]c(N)nc2=O)NC[C@@H]1CNc1ccc(C(=O)N[C@@H](CCC(=O)O)C(=O)O)cc1         96.5
7  Cn1c(C#N)ccc1-c1ccc2c(c1)C(C)(C)OC(=S)N2          108
8                          CCCCc1ccc(O)cc1O          102

Challenge: Which cell viability value belongs to "CC[C@H]1[C@@H](O)[C@@H]2[C@H](CC[C@]3(C)[C@@H]([C@H](C)CCC(=O)O)CC[C@@H]23)[C@@]2(C)CC[C@@H](O)C[C@@H]12" ?
Response given: 97.5

Challenge: Consider the molecule "CN(C)CCc1c[nH]c2ccc(Cn3cncn3)cc12" and give its measured cell viability.
Response given: 97.3

Challenge: For the molecule shown here, "O=C(O)c1cc(C(=O)O)c(C(=O)N(Cc2cccc(Oc3ccccc3)c2)[C@H]2CCCc3ccccc32)cc1C(=O)O" , give the reported cell viability.
Response given: 104

Challenge: Entry CC1=C(CC(=O)O)c2cc(F)ccc2/C1=C\c1ccc([S+](C)[O-])cc1 (stereo not drawn) : reported cell viability = ?
Response given: 98
